Sourced from paper PMC4929566

Test: Metabolite profiling and pharmacokinetics in plasma (targeted HPLC-MS2)
Assay type: in vivo, humans
Settings: human plasma, oral 60 mg 14C-EC, mean ± SEM n=8
Readout Type: T1/2 (elimination half-life) (h)
Respond numerically; units are h and should not be typed.

Ask: Any idea what its T1/2 (elimination half-life) is? The compound is COc1ccc([C@H]2Oc3cc(O)cc(OS(=O)(=O)O)c3C[C@H]2O)cc1O [4′-O-Methyl-(−)-epicatechin-5-sulfate]
Result: 1.4

Ask: Now consider O=S(=O)(O)Oc1cc(O)c2c(c1)O[C@H](c1ccc(O)c(O)c1)[C@H](O)C2 [(−)-Epicatechin-7-sulfate] and answer again.
Result: 2.2

Ask: Quick one: COc1cc([C@H]2Oc3cc(OS(=O)(=O)O)cc(O)c3C[C@H]2O)ccc1O [3′-O-Methyl-(−)-epicatechin-7-sulfate, 3′-O-methyl-(−)-epicatechin-7-sulfate]
Result: 2.4

----------
Kindly supply the reported Tmax values for the records listed here.
Test: Metabolite profiling and pharmacokinetics in plasma (targeted HPLC-MS2)
Type: in vivo, humans
Details: human plasma, oral 60 mg 14C-EC, mean ± SEM n=8
Lab book: enter the figure in min, no units written.

Ask: Param item = O=S(=O)(O)Oc1cc(O)c2c(c1)O[C@H](c1ccc(O)c(O)c1)[C@H](O)C2 [(−)-Epicatechin-7-sulfate] ; retrieve measured Tmax.
Result: 66

Ask: Then what about the compound COc1ccc([C@H]2Oc3cc(O)cc(OS(=O)(=O)O)c3C[C@H]2O)cc1O [4′-O-Methyl-(−)-epicatechin-5-sulfate] ?
Result: 54

Ask: Same question, COc1cc([C@H]2Oc3cc(O[C@@H]4O[C@H](C(=O)O)[C@@H](O)[C@H](O)[C@H]4O)cc(O)c3C[C@H]2O)ccc1O this time
Result: 54

Ask: Same for COc1cc([C@H]2Oc3cc(O)cc(O[C@@H]4O[C@H](C(=O)O)[C@@H](O)[C@H](O)[C@H]4O)c3C[C@H]2O)ccc1O
Result: 48

----------
Experiment: Metabolite profiling and quantification in urine (HPLC-MS2 with on-line radioactivity detector)
Assay type: in vivo, humans
Details: human, oral 207 μmol 14C-EC, mean ± SEM n=8
Excerpt: The study was a single-center, open-label, and non-randomized study with two distinct elements: a run-in phase to establish a more defined dietary background of dietary flavanols and procyanidins and the subsequent ^14C-EC ADME study (Fig. 1B). […] All urine and feces from the time just prior to the consumption of the test drink were collected at different time intervals for radioactivity and metabolite profiling. […]
Could you mark each record 1.0 if its Metabolite present in urine, collection period 0–48 h falls strictly under 10 μ mol, and 0.0 if it equals or exceeds it?

Ask: Threshold test, Metabolite present in urine, collection period 0–48 h < 10 μ mol: O=C(O)[C@H]1O[C@@H](Oc2cc([C@H]3Oc4cc(O)cc(O)c4C[C@H]3O)ccc2O)[C@H](O)[C@@H](O)[C@@H]1O [(−)-Epicatechin-3′-O-glucuronide, (−)-epicatechin-3′-O-β-D-glucuronide]
Result: 0.0

Ask: Next compound: O=C1CCC(Cc2cccc(OS(=O)(=O)O)c2)O1 (stereo not shown) [5-(Phenyl)-γ-valerolactone-3′-sulfate]
Result: 1.0

Ask: Field entry: COc1cc([C@H]2Oc3cc(O)cc(OS(=O)(=O)O)c3C[C@H]2O)ccc1O [3′-O-Methyl-(−)-epicatechin-5-sulfate, 3′-O-methyl-(−)-epicatechin-5-sulfate]
Result: 1.0

Ask: Now the same for O=C(O)CNC(=O)c1ccccc1 [Hippuric acid]
Result: 0.0

Ask: // repeat for O=C(O)CCC(O)Cc1cccc(OS(=O)(=O)O)c1 (stereo not shown) and report
Result: 1.0

Ask: Next entry: COc1ccc([C@H]2Oc3cc(OS(=O)(=O)O)cc(O)c3C[C@H]2O)cc1O [4′-O-Methyl-(−)-epicatechin-7-sulfate]
Result: 1.0

Ask: Field entry: O=C(O)CNC(=O)c1cccc(O)c1 [3′-Hydroxyhippuric acid]
Result: 0.0
